# System under test: BuChE from human serum (hBuChE) (Homo sapiens, UniProt P06276)
# Construct: commercial stock solution of BuChE from human serum (Sigma); purchased Sigma; host or cells: human serum
# Sequence (P06276 29-602): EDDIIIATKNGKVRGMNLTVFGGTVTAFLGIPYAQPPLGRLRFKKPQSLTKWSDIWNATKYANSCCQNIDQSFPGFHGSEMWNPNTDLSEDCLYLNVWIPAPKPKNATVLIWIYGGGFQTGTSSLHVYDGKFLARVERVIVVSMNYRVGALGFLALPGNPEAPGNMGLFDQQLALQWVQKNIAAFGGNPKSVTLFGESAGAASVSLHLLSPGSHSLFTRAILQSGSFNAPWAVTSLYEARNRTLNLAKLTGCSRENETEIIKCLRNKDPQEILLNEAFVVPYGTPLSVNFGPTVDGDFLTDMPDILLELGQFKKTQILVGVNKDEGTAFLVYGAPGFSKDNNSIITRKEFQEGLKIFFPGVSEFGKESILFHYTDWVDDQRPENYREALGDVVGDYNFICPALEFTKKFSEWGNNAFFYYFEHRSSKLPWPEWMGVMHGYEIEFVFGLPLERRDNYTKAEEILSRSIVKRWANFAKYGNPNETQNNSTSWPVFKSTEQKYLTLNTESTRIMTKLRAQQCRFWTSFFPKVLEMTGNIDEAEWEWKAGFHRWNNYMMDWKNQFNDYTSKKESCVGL
# Measurement description: Inhibition of human BuChE, Ellman's method
# Format: biochemical
# Particulars: BuChE from human serum; incubation 20 min; read-out: hBuChE IC50 (±SEM)
# Method: The capacity of 2–7 to inhibit human ChE activity was assessed using the Ellman’s method. […] Incubation times were: 60 min for 2 and 90 min for 3 and 4 on hAChE assay, and 45 min for 2 and 60 min for 3 and 4 on hBuChE assay, as assessed on the preliminary determination of the carbamoylation rate. […] The reaction rates obtained in the absence and presence of inhibitor were compared and the percent inhibition due to the presence of inhibitor was calculated. […]
Measurement label: IC50 (µM)
Reply with just the number (in µM).

Guide cases for IC50, answers given:
What does the record list as IC50 for CCCCCCCNC(=O)COc1cccc(CN(C)CCCOc2ccc3ccc(=O)oc3c2)c1 ?
182

Next compound: CN(CCCOc1ccc2ccc(=O)oc2c1)Cc1cccc(OCC(=O)NC2CCCC2)c1
11.6

Attention now turns to another entry.
Look up IC50 for this compound: CN(CCCOc1ccc2ccc(=O)oc2c1)Cc1cccc(OCC(=O)NC2CCCCC2)c1
12.8
